Molecular target: EGFR (A767_dupASV) expressing Ba/F3 stable cell line (Homo sapiens, UniProt P00533, DUP767-769, cells depend on it)
Sequence (P00533 with tags, fused parts or gaps DUP767-769): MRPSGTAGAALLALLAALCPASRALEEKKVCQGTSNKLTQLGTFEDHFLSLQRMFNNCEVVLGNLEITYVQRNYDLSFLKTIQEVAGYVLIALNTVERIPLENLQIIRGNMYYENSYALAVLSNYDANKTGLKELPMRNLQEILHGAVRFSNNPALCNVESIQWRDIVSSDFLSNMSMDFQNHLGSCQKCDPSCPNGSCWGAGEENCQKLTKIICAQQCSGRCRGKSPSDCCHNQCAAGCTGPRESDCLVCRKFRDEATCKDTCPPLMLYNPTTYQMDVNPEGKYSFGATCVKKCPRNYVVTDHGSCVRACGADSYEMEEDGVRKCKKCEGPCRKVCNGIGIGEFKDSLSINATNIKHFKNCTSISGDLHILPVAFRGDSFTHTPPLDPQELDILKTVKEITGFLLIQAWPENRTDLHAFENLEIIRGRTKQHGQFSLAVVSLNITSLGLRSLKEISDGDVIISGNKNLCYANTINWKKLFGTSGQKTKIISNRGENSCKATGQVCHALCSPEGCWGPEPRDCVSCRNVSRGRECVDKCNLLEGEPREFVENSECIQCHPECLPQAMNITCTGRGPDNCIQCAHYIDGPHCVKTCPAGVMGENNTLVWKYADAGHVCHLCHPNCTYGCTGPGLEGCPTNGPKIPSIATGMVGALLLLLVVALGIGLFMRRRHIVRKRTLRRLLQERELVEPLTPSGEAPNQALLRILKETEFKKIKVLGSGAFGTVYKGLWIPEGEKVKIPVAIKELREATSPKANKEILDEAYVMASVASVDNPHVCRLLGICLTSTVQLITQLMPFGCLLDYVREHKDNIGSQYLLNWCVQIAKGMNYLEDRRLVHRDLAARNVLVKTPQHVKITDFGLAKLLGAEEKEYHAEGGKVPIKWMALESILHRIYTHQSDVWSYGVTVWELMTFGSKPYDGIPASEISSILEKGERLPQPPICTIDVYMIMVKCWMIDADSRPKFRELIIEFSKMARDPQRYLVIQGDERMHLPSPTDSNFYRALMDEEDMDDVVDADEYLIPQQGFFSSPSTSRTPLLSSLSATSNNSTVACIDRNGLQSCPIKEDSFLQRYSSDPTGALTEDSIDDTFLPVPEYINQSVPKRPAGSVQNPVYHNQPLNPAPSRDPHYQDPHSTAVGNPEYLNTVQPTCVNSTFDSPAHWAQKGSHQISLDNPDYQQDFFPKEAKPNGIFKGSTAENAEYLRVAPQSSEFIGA
Assay: Cellular proliferation (Alamar Blue) assay, EGFR A767_dupASV Ba/F3
Format: cell-based
Settings: 72 hr, read-out: A767 IC50
Recorded GI50 values for a group of compounds are listed next.

| Compound | GI50 |
| --- | --- |
| C=CC(=O)Nc1ccc(F)c(Nc2nc(NC3CC3)ncc2-c2ccc(C(F)(F)F)cc2)c1 [Compound 180] | > 10 µM |

Lab book: GI50 of C=CC(=O)Nc1ccc(F)c(Nc2nc(Nc3nccs3)ncc2-c2ccc(C(F)(F)F)cc2)c1 [Compound 215] noted as > 10 µM

The compound listed as C=CC(=O)Nc1ccc(OC)c(Oc2nc(Nc3cnn(CCO)c3)ncc2Cl)c1 [Compound 171] has a reported GI50 of > 10 µM
